- system-tested: Gamma-secretase
- method: Inhibition of gamma-secretase-mediated Notch deltaE cleavage in human HeLa cells by luciferase assay
pIC50: −log10 of the molar value.
pIC50 values by entry
measured-property: pIC50

> print(dat)
                                test.smiles  obs.value
1  COc1ccc(N2CCN(c3nc(Nc4cc(C(C)(C)C)ccc4C)c4c(ncn4C)n3)CC2)cc1     < 4.30
2  COc1ccc(N2CCN(c3nc(Nc4cc(C(C)(C)C)ccc4C)c4c(n3)nc(C(F)(F)F)n4C)CC2(C)C)cc1     < 4.30
3  COc1ccc(N2CCN(c3nc(Nc4cc(C(C)(C)C)ccc4C)c4c(ncn4C)n3)CC2(C)C)cc1     < 4.30

Recorded values, source ChEMBL document CHEMBL1156324.
